- experiment: NOVARTIS: Cytotoxicity against human hepatocellular carcinoma cell line (Huh7)
- Type: toxicity, cell-based, Huh-7
- experimentalContext: Huh7 cells (hepatocellular carcinoma cell line)
quantity: CC50

In [3]: df
Out[3]:
                                   molecule  resultvalue
0                      Nc1ccc(N2CCCCCC2)cc1     > 100 µM
1  CCCCCCCCCCCC(=O)N(C)CCCNc1ccnc2cc(Cl)ccc12      3.01 µM
2  CCN1/C(=C\C=C2/SC(=S)N(c3ccccc3)C2=O)C(C)(C)c2cc(-c3ccccc3)ccc21    > 8.66 µM
3  CCOCCCN(C(=O)C(F)(F)F)C(C(=O)NC1CCCCC1)c1ccncc1 (stereo not given)      > 10 µM
4  CN(C)c1ccc(C=C2C(=O)NC(=O)N(Cc3ccccc3Cl)C2=O)cc1     > 100 µM
5     N=c1c2c(n(Cc3ccc(Cl)cc3)c3c1CCC3)CCC2     > 100 µM
6  Cc1ccn2c(NC(C)(C)CC(C)(C)C)c(-c3ccccc3OC(=O)c3ccco3)nc2c1      > 10 µM
7  COc1ccc2cc(CNCCc3cccc(Cl)c3)c(N3CCC(=O)N(CCN(C)C)CC3)nc2c1      > 10 µM
8  CCOC(=O)c1c(CNCCN(CC)CC)n(C)c2cc(Br)c(O)cc12     > 100 µM
9  C=C[C@H]1CN2CC[C@H]1C[C@@H]2[C@@H](OC(=O)c1cccs1)c1ccnc2ccccc12      > 10 µM

###

- experiment: NOVARTIS: Cytotoxicity against human hepatocellular carcinoma cell line (Huh7)
- Format: toxicity, cell-based, Huh-7
- experimentalContext: Huh7 cells (hepatocellular carcinoma cell line)
CC50 overview
quantity: CC50

In [3]: df
Out[3]:
                                    molecule  resultvalue
 0  COc1cc(OC)cc(C(=O)NCc2n[nH]c(=S)n2-c2cccc(Cl)c2)c1     > 100 µM
 1  Cc1cc(N2CCN(C3CCCCC3)CC2)n2c(nc3ccccc32)c1C#N     > 100 µM
 2  CCCOC(=O)C1=C(C)NC2=C(C(=O)CC(c3ccc(OC)c(OC)c3)C2)C1c1cccc(Cl)c1Cl (stereo unspecified)     > 100 µM
 3  CCCCCN(C(=O)Nc1ccccc1OC)C(C)c1nc2ccccc2c(=O)n1-c1ccccc1OCC (stereo unspecified)      > 10 µM
 4  Cc1cccc(NC(c2ccncc2)c2ccc3cccnc3c2O)n1 (stereo unspecified)      69.9 µM
 5  Cc1nc(-c2nc3c(s2)CN(C(=O)CCc2cccnc2)CC3)cs1      > 10 µM
 6  CCCCCCc1cc(O)c2c(c1)OC(C)(C)C1=C2CCN(C)C1      20.6 µM
 7  COc1ccc(NS(=O)(=O)c2cccc(C(=O)Nc3ccccc3[N+](=O)[O-])c2)cc1      44.5 µM
 8  CC(C)CC(N)C(=O)NCCCNc1nsc2ccccc12 (stereo unspecified)      15.9 µM
 9  COc1cccc(NC(=O)c2sc3ncn(CC(=O)N4CCN(c5ccccn5)CC4)c(=O)c3c2C)c1     > 100 µM
10  Cc1ccc(NC(=O)N2CCN(CCN(Cc3ccc(F)cc3)C(=O)c3ccccc3C)CC2)cc1      > 10 µM
11    COc1ccc(CN2CCN(C(=O)c3cccnc3)CC2)cc1OC     > 100 µM
12      Cc1ccc(Cl)cc1Nc1nc2ccccc2n2c(C)nnc12     > 100 µM
13  COc1cc(C=C2CCC(=Cc3cc(OC)c(OC)c(OC)c3)C2=O)cc(OC)c1OC     > 100 µM
14  O=C(CCC1CCCN(C(=O)c2ccsc2)C1)N1CCN(c2ccccn2)CC1 (stereo unspecified)      > 10 µM
15  Cc1c(C(=O)N2CCC3(CCN(C)C3)C2)cnn1-c1ncc2c(n1)-c1ccccc1SC2 (stereo unspecified)      > 10 µM
16  COc1cc(C)c(CCNCCCCCCNCCc2cc(OC)c(OC)cc2C)cc1OC      > 10 µM
17  CC(C)OC(=O)CSc1nnc(CNc2nc(-c3ccccc3)cs2)n1C     > 100 µM
18  CCc1ccc(NC(=O)c2ccc(F)c(S(=O)(=O)N3CCN(C)CC3)c2)cc1      > 10 µM
19  CC(NCCCN(C)C)c1cc(C(C)(C)C)cc2c1CCC2(C)C (stereo unspecified)      6.22 µM
20  Cn1nc(C(F)(F)F)c(-c2ccc(F)cc2)c1NC(=O)Nc1ccc(F)cc1F      29.2 µM

###

Below, each of the compounds is paired with its reported CC50 value.
- experiment: NOVARTIS: Cytotoxicity against human hepatocellular carcinoma cell line (Huh7)
- Format: toxicity, cell-based, Huh-7
- experimentalContext: Huh7 cells (hepatocellular carcinoma cell line)
quantity: CC50

>>> df
                                    compound  resultvalue
 0         c1ccc2cc3c(NCCN4CCOCC4)ccnc3cc2c1      > 10 µM
 1  Cc1cccc(C)c1-n1c(SCc2cccc(F)c2)nc2c(sc(=S)n2-c2c(C)cccc2C)c1=O     > 100 µM
 2  COc1cc(NC(C)CCCN(Cc2ccc(F)cc2)C(=O)c2ccccc2F)c2ncccc2c1 (stereo unspecified)    > 8.74 µM
 3          Cc1nc2cc(-c3ccc(I)cc3)nn2c(O)c1C     > 100 µM
 4   N#Cc1ccccc1CN1CCC(Oc2cccc3onc(N)c23)CC1     0.891 µM
 5  COc1ccc(CCNc2nc(NCCCN3CCCCC3C)ncc2C(=O)NCC(C)C)cc1OC (stereo unspecified)      > 10 µM
 6  CCC(C)Nc1nc(NC(C)CC)nc(N2CCCCCC2)n1 (stereo unspecified)      14.7 µM
 7     Cc1ccc(-c2nn3c(O)c4c(nc3c2C)CCCC4)cc1     > 100 µM
 8  CCN1/C(=C/c2sc3cc(OC)c(OC)cc3[n+]2CC)C=Cc2ccccc21      > 10 µM
 9  COc1cccc(-c2cc(C(=O)Nc3cc(Cl)ccc3O)on2)c1     > 100 µM
10  CCC(C(=O)NCCCCNc1ccnc2cc(Cl)ccc12)c1ccccc1 (stereo unspecified)      11.5 µM

###

- experiment: NOVARTIS: Cytotoxicity against human hepatocellular carcinoma cell line (Huh7)
- Type: toxicity, cell-based, Huh-7
- experimentalContext: Huh7 cells (hepatocellular carcinoma cell line)

compound	CC50
O=C(Nc1nc(-c2ccccc2)cs1)c1ccccc1O	24.3 µM
CCN(CC)c1ccc(/C=C/C23NC(=O)CCN2c2ccc(C)cc2C3(C)C)cc1 (stereo not given)	> 10.1 µM
C(=Nc1cnc2ccccc2c1)c1c2n(c3ccccc13)CCCN2	> 100 µM
CCOc1ccccc1NC(=O)CN1CCN(C(=O)c2ccco2)CC1	> 100 µM
CC(CNC(=O)c1cn(C2CCCCC2)cc(C(=O)NC(C)(C)C)c1=O)c1ccccc1 (stereo not given)	> 10 µM
CCOC(=O)c1c(C)[nH]c(C)c1S(=O)(=O)N1CCCC(C(=O)N2CCN(c3cccc(C)c3C)CC2)C1 (stereo not given)	> 100 µM
Cc1nc(NN=Cc2ccccc2O)cc(N2CCCCC2)n1	> 10 µM
O=C1C2C(C(=O)N1c1cccc3ccccc13)C1C=CC2C12CC2 (stereo not given)	> 100 µM
CN1CCN(c2nc(NN=Cc3ccc(O)cc3)nc(Nc3ccc([N+](=O)[O-])cc3)n2)CC1	> 10 µM
Fc1ccc(Nc2nc(NCc3ccccc3)c3ccccc3n2)cc1	8.87 µM
CCN1CCC(Nc2ccnc3cc4ccccc4cc23)CC1	> 10 µM
Cn1cnc2cc(OC3CCN(Cc4ccco4)CC3)ccc21	> 4.34 µM
COc1ccc(C(C)=NNc2nnc(C)c(O)n2)cc1	7.68 µM
COc1ccc(C2C(C(=O)Nc3cc(Cl)c(OC)cc3OC)c3ccccc3C(=O)N2C)cc1 (stereo not given)	> 100 µM
O=C(CSc1oc(-c2ccc(Cl)cc2)nc1[P+](c1ccccc1)(c1ccccc1)c1ccccc1)c1ccccc1	> 10 µM
O=C(Nc1ccc(Cl)cc1)Nc1ccc(Br)cn1	> 100 µM
COc1ccc(-c2cc3c(nn2)-c2ccccc2C3=O)cc1	65.8 µM
C/C(Cl)=C/Cc1c(C)nc2c(ccc3ccccc32)c1O	> 10 µM
COc1cc(OC)cc(N2C(=O)N(Cc3ccc(C(C)(C)C)cc3)c3ccccc3S2(=O)=O)c1	> 100 µM
CC[C@H]1CN2CC[C@@H]1C[C@@H]2[C@@H](O)c1ccnc2ccc(OC)cc12	> 10 µM
CCCNC(=O)c1ccc(OC2CCN(CC(c3ccccc3)c3ccccc3)CC2)c(OC)c1	> 10 µM
CCC(O)CN(c1ccccc1)c1ccccc1 (stereo not given)	> 10 µM
O=[N+]([O-])c1cc(Br)c(Nc2ccccc2)c([N+](=O)[O-])c1	6.6 µM
CCOc1ccc2nc(Sc3nc(Nc4cccc(C)c4)nc(Nc4cccc(C)c4)n3)sc2c1	> 100 µM
CCC(Oc1ccc(C(C)(C)CC)cc1C(C)(C)CC)C(=O)Nc1ccc([N+](=O)[O-])cc1O (stereo not given)	> 100 µM
CCCCOc1nc(-c2ccc(OC)cc2)n(C(=O)c2ccccc2OC)n1	> 100 µM
CCC(=O)NNc1cc(N2CCCC2)nc(N2CCCC2)n1	> 100 µM
O=C(C[n+]1cc(-c2ccc(Cl)cc2)n2c1CCC2)c1ccc(C2CCCCC2)cc1	35.5 µM
CCCOc1ncnc2c1sc1nc3c(cc12)COC(C)(C)C3	> 10 µM
COC1C(OC2OC(C)C(O)C(C)(O)C2OC)c2c(cc3c(c2O)C(=O)c2c(ccc4c2OC2OC4(C)C(OC4CC(C)([N+](=O)[O-])C(OC5OC(C)C(O)C(C)(O)C5OC)C(C)O4)C(N(C)C)C2O)C3=O)CC1(C)O (stereo not given)	> 10 µM
CCCCCCCCC(=O)Oc1ccccc1-c1nc2cc(C)ccn2c1NC(C)(C)CC(C)(C)C	> 10 µM
Cc1sc2nc(C3CC3)n(C3CCN(C(=O)c4ccccn4)CC3)c(=O)c2c1C	> 10 µM
CC(C)(C)c1ccc(C2CC3=Nc4ccccc4N(C(=O)c4ccccc4Cl)C(c4ccc(F)cc4)C3=C(O)C2)cc1 (stereo not given)	> 100 µM
CCN1CCN(c2c(Cl)cccc2NC(=O)C(Cl)(Cl)Cl)CC1	> 100 µM
CC1(C)CN=C(N2CCN(CC(O)COc3ccc(OCC(O)CN4CCN(C5=NCC(C)(C)S5)CC4)cc3)CC2)S1 (stereo not given)	> 10 µM
COc1ccc(C2=CC(=Cc3cccc(OC)c3OC)C(=O)O2)cc1OC	> 100 µM
NC(=O)c1ccc2[nH]c3c(c2c1)CCCC3	> 100 µM
Cc1ccc(-c2c[n+](-c3ccccc3)c3n2CCCS3)cc1	> 100 µM
CCCN1CCC(N2C[C@@H](NC3CCN(CCc4ccccc4)CC3)C[C@H]2C(=O)NCCc2ccc3c(c2)OCO3)CC1	11.1 µM
CCOc1ccc(Nc2cc(C)nc3ccc(OCC)cc23)cc1	> 10 µM
